Collected Specific activities values appear next to each entry.
Biological target: Ima1p (Saccharomyces cerevisiae, UniProt P53051)
Sequence (P53051 whole entry): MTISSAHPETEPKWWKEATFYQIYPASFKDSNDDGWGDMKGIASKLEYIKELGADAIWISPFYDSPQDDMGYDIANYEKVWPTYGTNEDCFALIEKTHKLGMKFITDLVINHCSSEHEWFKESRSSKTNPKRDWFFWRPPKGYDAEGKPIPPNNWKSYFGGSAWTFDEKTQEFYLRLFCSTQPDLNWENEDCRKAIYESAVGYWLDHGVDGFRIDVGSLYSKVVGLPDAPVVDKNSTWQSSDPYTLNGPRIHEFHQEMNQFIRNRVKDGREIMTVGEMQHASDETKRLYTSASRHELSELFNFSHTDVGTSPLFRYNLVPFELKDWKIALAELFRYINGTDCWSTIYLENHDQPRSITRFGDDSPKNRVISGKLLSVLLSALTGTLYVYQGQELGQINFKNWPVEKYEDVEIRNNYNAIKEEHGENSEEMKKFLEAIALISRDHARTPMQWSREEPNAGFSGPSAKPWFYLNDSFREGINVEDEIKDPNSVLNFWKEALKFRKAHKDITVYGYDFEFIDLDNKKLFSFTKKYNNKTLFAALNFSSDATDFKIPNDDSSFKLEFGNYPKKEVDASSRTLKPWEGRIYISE
Assay: Substrate specificity of purified isomaltase
Type: biochemical
Conditions: 100 mM substrate (pNPG 5 mM), citrate–potassium phosphate buffer, pH 7, 30 °C
Measured Parameter: Specific activities

Compound: OC[C@H]1O[C@@](CO)(O[C@H]2O[C@H](CO)[C@@H](O)[C@H](O)[C@H]2O)[C@@H](O)[C@@H]1O
Measured Result: 18.6 µmol/min/mg
--
Compound: OC[C@H]1O[C@H](O[C@@H]2[C@@H](O)[C@@H](O)O[C@H](CO)[C@H]2O)[C@H](O)[C@@H](O)[C@@H]1O
Measured Result: 6.5 µmol/min/mg
--
Compound: OC[C@H]1O[C@H](OC[C@H]2O[C@H](OC[C@H]3OC(O)[C@H](O)[C@@H](O)[C@@H]3O)[C@H](O)[C@@H](O)[C@@H]2O)[C@H](O)[C@@H](O)[C@@H]1O (stereo partly drawn)
Measured Result: 7.9 µmol/min/mg
--
Compound: OC[C@H]1O[C@H](OC[C@H]2O[C@H](O)[C@H](O)[C@@H](O)[C@@H]2O)[C@H](O)[C@@H](O)[C@@H]1O
Measured Result: 60 µmol/min/mg
--
Compound: COC1OC(CO)C(O)C(O)C1O (stereo not drawn) [α-MG, α-Methylglucopyranoside]
Measured Result: 52 µmol/min/mg
--
Compound: OC[C@H]1O[C@H](OC[C@H]2OC(O)(CO)[C@@H](O)[C@@H]2O)[C@H](O)[C@@H](O)[C@@H]1O (stereo partly drawn)
Measured Result: 52 µmol/min/mg
